target: Dual specificity tyrosine-phosphorylation-regulated kinase 1A (Homo sapiens, UniProt Q13627); assay: DYRK1A Inhibition Assay
pIC50: −log10 of the molar value.
measureName: pIC50

Recorded results for 3 compounds are shown here.
Cc1ncc2ccc(-c3cncs3)cc2c1OC1CNC1 | 7.26
C(#CC1CCOCC1)c1ncc(-c2ccc3cncc(OC4CCNCC4)c3c2)s1 | > 8.00
CC(=O)N1CCC(Oc2cncc3ccc(-c4cnn5cc(C(F)(F)F)ccc45)cc23)CC1 | > 8.00

Prompt line: Complete the entry with pIC50 for `CN(C)[C@H]1CC[C@@H](Oc2cc3cc(-c4cnc(C#CC5CCOCC5)s4)ccc3cn2)CC1`
Response line: < 6.00

Prompt line: Complete the entry with pIC50 for `CC(=O)N1CCC(Oc2cc3cc(-c4cnc(C#CC5CCOCC5)s4)ccc3cn2)CC1`
Response line: < 6.00

All figures here come from BindingDB's records for patent US20250066318.
